Each recorded value in this set is attributed to patent US11530180B2.

TEST TARGET: alpha-5-beta-1 integrin (Homo sapiens (Human), UniProt P05556+P08648)
Sequence (P08648 42-894): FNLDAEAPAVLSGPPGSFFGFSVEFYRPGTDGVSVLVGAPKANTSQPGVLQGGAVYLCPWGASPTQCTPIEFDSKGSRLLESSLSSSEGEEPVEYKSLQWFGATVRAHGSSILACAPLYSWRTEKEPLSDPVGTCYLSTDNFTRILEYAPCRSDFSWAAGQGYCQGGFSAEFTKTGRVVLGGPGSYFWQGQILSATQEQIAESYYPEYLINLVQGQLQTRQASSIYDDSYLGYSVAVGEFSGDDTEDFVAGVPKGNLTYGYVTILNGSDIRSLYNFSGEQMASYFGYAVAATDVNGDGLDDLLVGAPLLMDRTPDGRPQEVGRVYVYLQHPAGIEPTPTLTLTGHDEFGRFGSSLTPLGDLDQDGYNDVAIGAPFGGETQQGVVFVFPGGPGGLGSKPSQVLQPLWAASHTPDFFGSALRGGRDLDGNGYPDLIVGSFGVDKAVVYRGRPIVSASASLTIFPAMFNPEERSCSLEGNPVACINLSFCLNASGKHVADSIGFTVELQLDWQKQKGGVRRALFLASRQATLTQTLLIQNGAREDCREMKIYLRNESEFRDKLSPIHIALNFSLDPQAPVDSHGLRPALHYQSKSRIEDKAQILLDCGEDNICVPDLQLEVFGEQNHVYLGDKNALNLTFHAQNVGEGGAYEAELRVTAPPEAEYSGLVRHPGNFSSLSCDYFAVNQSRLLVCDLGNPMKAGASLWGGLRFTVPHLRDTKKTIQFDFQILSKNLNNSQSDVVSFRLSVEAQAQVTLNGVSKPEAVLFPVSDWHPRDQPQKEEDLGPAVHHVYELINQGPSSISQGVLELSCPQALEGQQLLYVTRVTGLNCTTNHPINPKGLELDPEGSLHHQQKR
Sequence (P08648 895-1049 partner): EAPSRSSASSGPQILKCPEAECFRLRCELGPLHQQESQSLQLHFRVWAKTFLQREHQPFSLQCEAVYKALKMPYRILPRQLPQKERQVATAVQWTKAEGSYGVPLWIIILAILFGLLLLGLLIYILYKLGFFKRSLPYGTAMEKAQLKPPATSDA
Sequence (P05556 21-798): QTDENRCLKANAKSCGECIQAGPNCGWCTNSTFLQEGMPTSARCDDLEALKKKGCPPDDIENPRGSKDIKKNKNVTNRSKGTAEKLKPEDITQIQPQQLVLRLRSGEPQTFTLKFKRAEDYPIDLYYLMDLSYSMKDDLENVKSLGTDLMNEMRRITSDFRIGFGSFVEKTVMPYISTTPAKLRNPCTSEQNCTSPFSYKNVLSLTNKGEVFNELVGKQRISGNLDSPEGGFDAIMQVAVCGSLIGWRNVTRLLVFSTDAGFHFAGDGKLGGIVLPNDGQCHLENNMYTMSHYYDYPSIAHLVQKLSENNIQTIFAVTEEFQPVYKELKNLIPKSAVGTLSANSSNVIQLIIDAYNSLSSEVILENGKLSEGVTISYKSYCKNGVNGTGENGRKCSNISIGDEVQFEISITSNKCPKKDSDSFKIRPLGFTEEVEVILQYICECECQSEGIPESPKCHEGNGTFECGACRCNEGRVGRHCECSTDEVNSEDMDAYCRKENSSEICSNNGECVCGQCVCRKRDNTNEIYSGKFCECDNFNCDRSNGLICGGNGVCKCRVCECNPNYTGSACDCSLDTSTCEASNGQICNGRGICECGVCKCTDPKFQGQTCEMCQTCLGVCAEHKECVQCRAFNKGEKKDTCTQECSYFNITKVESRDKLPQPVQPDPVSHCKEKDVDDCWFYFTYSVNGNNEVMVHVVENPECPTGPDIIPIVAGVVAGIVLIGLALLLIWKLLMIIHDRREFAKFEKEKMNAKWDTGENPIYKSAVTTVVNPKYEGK
PROTOCOL DESCRIPTION: alpha-5-beta-1 integrin cell adhesion assay (SW480 cells on human plasma fibronectin)
Assay type: cell-based
MEASUREMENT PARAMETERS: alpha-5-beta-1 integrin cell adhesion assay following Example 1; Table 2
pIC50: −log10 of the molar value.
# pIC50 listing for each entry below

Q: Tell me pIC50 reported for `O=C(CNC(=O)c1cccc(NC2=NCCCN2)c1)NC[C@H](NC(=O)c1c(Cl)cc(-c2ccccc2)cc1Cl)C(=O)O`
Ans: > 7.00

Q: Tell me pIC50 reported for `O=C(CNC(=O)c1cccc(NC2=NCC(F)(F)CN2)c1)NC[C@H](NC(=O)c1c(Cl)cc(-c2ccc3cn[nH]c3c2)cc1Cl)C(=O)O`
Ans: > 7.00

Q: Tell me pIC50 reported for O=C(CNC(=O)c1cccc(NC2=NCC(F)CN2)c1)NC[C@H](NC(=O)c1c(Cl)cc(N2CCOCC2)cc1Cl)C(=O)O (stereo partly drawn)
Ans: > 7.00

Q: Tell me pIC50 reported for `CNc1cccc(CCC(=O)NCC(=O)NC[C@H](NC(=O)c2c(Cl)cc(-c3ccccc3)cc2Cl)C(=O)O)n1`
Ans: 5.00 to 6.00

Q: Tell me pIC50 reported for `CN(CC(=O)NC[C@H](NC(=O)c1c(Cl)cc(-c2ccccc2)cc1Cl)C(=O)O)C(=O)c1cccc(NC(=N)N)c1`
Ans: 6.00 to 7.00

Q: Tell me pIC50 reported for `O=C(CNC(=O)c1cccc(NC2=NCCCS2)c1)NC[C@H](NC(=O)c1c(Cl)cc(-c2ccccc2)cc1Cl)C(=O)O`
Ans: > 7.00

Q: Tell me pIC50 reported for `COC(=O)[C@H](CNC(=O)CNC(=O)c1cc(C#N)cc(N/C(=N/C(=O)OC(C)(C)C)NC(=O)OC(C)(C)C)c1)NC(=O)c1c(Cl)cc(-c2ccccc2)cc1Cl`
Ans: > 7.00
